# TEST TARGET: Toll-like receptor 4 (Homo sapiens)
# Sequence (O00206 whole entry): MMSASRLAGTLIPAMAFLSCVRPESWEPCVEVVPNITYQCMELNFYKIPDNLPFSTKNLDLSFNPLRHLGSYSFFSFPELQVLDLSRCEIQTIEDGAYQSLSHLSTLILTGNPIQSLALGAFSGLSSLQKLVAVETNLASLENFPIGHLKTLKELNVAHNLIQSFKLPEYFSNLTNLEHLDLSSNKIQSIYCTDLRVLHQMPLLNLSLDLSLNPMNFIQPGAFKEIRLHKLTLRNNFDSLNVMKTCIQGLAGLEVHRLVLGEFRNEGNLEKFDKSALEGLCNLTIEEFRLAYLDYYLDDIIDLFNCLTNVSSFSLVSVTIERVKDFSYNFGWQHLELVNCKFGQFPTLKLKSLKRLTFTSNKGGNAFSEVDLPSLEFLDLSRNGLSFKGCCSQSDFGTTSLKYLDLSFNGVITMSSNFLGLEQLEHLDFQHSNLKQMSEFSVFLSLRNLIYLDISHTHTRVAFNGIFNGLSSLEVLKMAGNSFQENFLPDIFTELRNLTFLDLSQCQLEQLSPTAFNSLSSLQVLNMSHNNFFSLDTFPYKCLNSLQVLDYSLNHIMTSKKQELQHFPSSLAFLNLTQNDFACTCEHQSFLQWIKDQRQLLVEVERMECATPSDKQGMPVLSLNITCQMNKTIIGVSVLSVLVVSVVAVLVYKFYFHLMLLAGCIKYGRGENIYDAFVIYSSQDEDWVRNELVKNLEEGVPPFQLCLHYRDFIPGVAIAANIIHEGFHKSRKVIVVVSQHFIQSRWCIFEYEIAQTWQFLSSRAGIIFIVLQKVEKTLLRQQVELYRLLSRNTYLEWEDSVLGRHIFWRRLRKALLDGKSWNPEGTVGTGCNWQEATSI
# MEASUREMENT DESCRIPTION: Antagonist activity at human TLR4 expressed in HEK blue cells coexpressing MD-2/CD14 assessed as inhibition of LPS-induced NF-kappaB activation-mediated SEAP production after 24 hrs
# Type: cell-based
# TEST PARAMETERS: read-out: IC50
MEASURED PARAMETER: pIC50
Give bare numbers, as −log10 of the molar value.

Examples with answers:
Cc1nn(Cc2ccccc2Cl)c(C)c1CN(C)CC(O)CCOc1cccc2[nH]c3ccccc3c12 (stereo not given) | 4.82
CCOc1ccc(OCC(O)CN(C)Cc2c(C)nn(Cc3ccccc3Cl)c2C)cc1 (stereo not given) | 4.47
COc1ccccc1OCCNCC(O)COc1cccc2[nH]c3ccccc3c12 (stereo not given) | 4.48

Hi, could you look up pIC50 for each item in my list?
1. CCc1ccc(OCCC(O)CN(C)Cc2c(C)nn(Cc3ccccc3Cl)c2C)cc1 (stereo not given)
2. OC(CNc1ccc2c(c1)-c1ccccc1C2)COc1cccc2[nH]c3ccccc3c12 (stereo not given)
3. Cc1nn(Cc2ccccc2F)c(C)c1CN(C)CC(O)COc1cccc2[nH]c3ccccc3c12 (stereo not given)
4. CCOc1ccc(OCCC(O)CN(C)Cc2c(C)nn(Cc3ccccc3C)c2C)cc1 (stereo not given)

(A)
1. 4.58
2. 4.91
3. 4.46
4. 4.26

Please look at the items below and tell me pIC50 for each one, in order.
1. COc1ccccc1OCCNCC(O)CCOc1cccc2[nH]c3ccccc3c12 (stereo not given)
2. CCOc1ccc(OCCC(O)CN(C)Cc2c(C)nn(Cc3ccc(Cl)cc3)c2C)cc1 (stereo not given)
3. Cc1ccc(OCCC(O)CN(C)Cc2c(C)nn(Cc3ccccc3Cl)c2C)cc1 (stereo not given)

(A)
[4.49, 4.59, 4.29]

Reference for the values: ChEMBL document CHEMBL4152275
